Test: yeast display, Sf9 membrane polyspecificity reagent, FACS + sequencing; frameworks hold sequencing errors
Measure: polyreactivity (PSR sort gate)

# Monomer Sequence, polyreactivity (PSR sort gate)
measured = [
    ("QVQLVESGGGLVQAGGSLRLSCAASGSIFPKNAMGWYRQATGKERELVARISGSGGSTYYADSVKGRFTISRDNAKNTVYLQMNSLKPEDTAVYYCAKDQSKIYSSWSGYYYWGQGTQVTVSS", "low polyreactivity"),
    ("QVQLVESGGGLVQAGGSLRLSCAASGRIFTIYAMGWYRQAPGKERELVAAISDRGTRTYYADSVKGRFTISRDNAKNTVYLQMNSLKPEDSEVYYCATDALYTYGYDYWGQGTQVTVSS", "low polyreactivity"),
    ("QVQLVESGGGLVQAGGSLRLSCAPSGRTFNYNAMGWYRQAPGKERELVAAITSSGGGTSYADSVKGRFTISRDNAKNTVYFQMNSLKPYYTAVYYCAAEVDRGKYCSTYRGGDYCGQGTQVTVSS", "high polyreactivity"),
    ("QVQLVESGGGLVQAGGSLRLSCAASGSIFWLYAMGWYRQAPGKERELVARINWSGGNTYYADSVKGRFTISRDNAKNTDYLQMNSLKPEDTAVYYCNARSQYRMNYWGQGTQVTGSS", "low polyreactivity"),
    ("QVQLVESGGGLVQAGGSLRLSCAASGSIFYVYAMGWSRQAPGKERELVASITRRRTNYADSVKGRFTISRDTAKNTVYLQMNSLKPEDTAVYYCAATTYVRQYATYDYWGQGTQVTVSS", "high polyreactivity"),
]

// sample QVQLGESGGGLVQAGGSLRLSCAASGSIFRRYARGWYRQAPGKERELVAAISSSGGRTYYADSVKGRFTISRDNAKNTVYLQMNSLKPEETAVYYCAKDTYGFAANRPAGDGYWGQGTQVTVSS , its polyreactivity (PSR sort gate) was high polyreactivity

polyreactivity (PSR sort gate) reading for QVQLVESGGGLVQAGGSLRLSCAASGRIFFWYAMGWYRQAPGKERELVAAISKSGGSTYYADSVKGRFTISRDNAKNTVYLQMNSLKPEDTAVYYCARVSKRTWSGYYYWGQGTQVTVSS : high polyreactivity

For record QVQLVESGGGLVQAGGSLRLSCAASGSTFYKYAMGWYRQAPGKERELVASITWSGTSTYYADSVKGRFTISRDNAKNTVYLQMNSLKPEDTAVYYCNAGLEYYYWGYTWEFDYWGQGTQVTVSS the listed polyreactivity (PSR sort gate) is low polyreactivity

The sequence QVQLVESGGGLVQAGGSLRLSCAASGRIFNNNAMGWYRPAPGKERELVASITRRGGRTYYADSVKGRFTISRDNAKNTVYLQMNSLKPEDTAVYYCNALAGPPEFVRNYYWGQGTQVTVSS showed polyreactivity (PSR sort gate) equal to high polyreactivity

Notebook: QVQLVESGGGLVQAGGSLRLSCAASGGIFFYSAMGWYRQAPGTERELVAAISYSGGSTYYADSVKGRFTISRDIAKNTVYLQMISLKPEDTAVYYCAADVYSESKSGIYEYWGQGTQVTVSS , polyreactivity (PSR sort gate) read as low polyreactivity

The sequence identified as QVQLVESGGGLVQARGSLRLSCAASGFIFPSYAMGWYRQAPGKERELDAAITWNGGSTYYADSVKGRFTISRDNAKNTVYLQMNSLKPEDTAVYYCNKYYYYRDYGYWVQGTQVTVSS registered its polyreactivity (PSR sort gate) at high polyreactivity

Field polyreactivity (PSR sort gate) (entry QVQLVESGGGLVQAGGSLRLSCAASGSIFASYAMGWYRQAPGKERELVAAIRSSGGRTYYADSVKGRFTISRDNAKYTVYLQMYSLKPEDTAVYYCNDRRPGYRPYGYDYWGQGTQVTVSS ) reads high polyreactivity

// polyreactivity (PSR sort gate) lookup, sequence = QVHLVESGGGLVQAGGSLRLSCAGSGRTFRYYAMGWYGQAPGKERELVAAISVRTGSTSDADSVKGRFTISRDNAKNTVYLQMNSLNPEDTAVYYCAATSRYFQPPGYGGGRIGYGYWGQGTQVTVSS , result: high polyreactivity

Quick note, polyreactivity (PSR sort gate) for QVQLVESGGGLVQAGGSLRLSCAASGRTFVLYTMGWYRQAPGKERELLAVGSTYYADSVKGRFTISRDNAKNTVYLQMNSLKPEDTAVYYCAVDLYWSYFNGALGYRYYYWGQGTQVTVSS landed at high polyreactivity

For this sequence ( QVQLVESGGGLVQAGGSLRLSCAASGRIFPWYAMGWYRQAPGKERELVAAIKWDSGSTYYADSVKGRFTISRDNAKNTVYLQMNSLKPEDTAVYYCAAEYVAWYYGLYFSYDYWGQGTQVTVSS ), measured polyreactivity (PSR sort gate) is high polyreactivity

Entry QEQLLESGGGLVQAGGSLRLSCAASGYISSHIMSWYRQAPGKEREFVDTITDGGTTNYADSVKGRFTISRDNAKNTVYLQMNSLKPEDTAVYYCAAVATYSYHFGYWGHGTQVTVSS — recorded polyreactivity (PSR sort gate) = high polyreactivity

Query QVQLVESGGGLVQAGGSLRLSCAASGIIFGGYAMGWYRQAPGKERELVAAIDSSGSSTYYADSVKGRFTISRDNAKNTVYLQMNSLKPEDTAVYYCNAASSGHSGRLTSIINDYWGQGTQVTVSS yields polyreactivity (PSR sort gate) of high polyreactivity

Value of polyreactivity (PSR sort gate) reported for the sequence QVQLVESGGGLVQAGGSLRLSCAASGYTYGTYDMRWYRQAPGKERELVAAFSIGGSTNYADSVKGRFTISRDNAKNTVYLQMNSLKPEDTAVYYCAAEVNVGTLLLSVIVEDGDYWGQGTQVTVSS is low polyreactivity

polyreactivity (PSR sort gate) measured on QVQLVESGGGLVQAGGSLRLSCAASGRTFTYYAMGWYRQAPGKERELVAAITWSGGSTYYADSVKGRFTISRDNAKNTVYLQMNSLKPEDTAVYYCAAVDADYYYWGQGTQVTVSS = high polyreactivity

Recorded polyreactivity (PSR sort gate) (sequence QVQLVESGGGLVQAGGSLRLSCAASGRIFAYYAMGRYRQAPGKERELVAAITRSGARTYYADSVKGRFTISRDNAKNTVYLQMNSLKPEDTAVYYCAAEGVRIGTRYDYWGQGTQVTVSS ): high polyreactivity

Lab book: polyreactivity (PSR sort gate) of QVQLVESGGGLVQAGGSLRLTCAASGFTFSYYTMGRYRQAPGKERELVAAISSGGSTYYADSVKGRFTISRDNAKNSVYLQMNSLKPEDTAVYYCNAYYGSYSPANGEYWGQGTQVTVSS noted as high polyreactivity

* * *

Assay: yeast display, Sf9 membrane polyspecificity reagent, FACS + sequencing; frameworks hold sequencing errors
Measure: polyreactivity (PSR sort gate)

Some sequences with recorded polyreactivity (PSR sort gate):
# Monomer Sequence, polyreactivity (PSR sort gate)
measured = [
    ("QVQLVESGGGLVQAGGSLRLSCAASGRIFYAYAMGWYRQAPGKEREFVAAISKRGGSTYYADSVKGRFTISRDNAKNTVYFQMNSLKPEDTAVYYCAADHEAIVRYDYWGQGTQVTVSS", "low polyreactivity"),
    ("QVQLVESGGGLVQAGGSLRLSCAASGLILNYYTMGSYRQAPGKERELVATISSSTGSTYYADSVKGRFTISRDNAKNTVYLQMNSLKPEDTAVYYCAADHWSYWQIYEYWGQGTQVTVSS", "low polyreactivity"),
    ("QVQLVESGGGLVQAGGSLRLSCAASGRIFYQYAMGWYRPAPGKERELVAAIRWSGGSTYYADSVKGRFTISRDNAKNTVYLQMNSLKQEDTAVYYCNARYPYWGAYYDYDYWGQGTQVTVSS", "low polyreactivity"),
    ("QVQLVESGGGLVQAGGSLRLSCAASGRVLPPNAIGWYRQAPGKERELVAAINWSSGRTYYADSVKGRFTISRDYAKNSVYLQMNSLKPEDTAVYDCAKAYRYAYGYDYWGQGTQVTVSS", "high polyreactivity"),
    ("QVQLVESGGGLVQAGGSLRLSCAASGFTFPWYAMGWYRQAPGKERELVAAISTSGDSTYYADSVKGRFTISRDNAKNTVYLQMNSLKPEDTAVYYCAARVVRGRYGYWGQGTQVTVSS", "high polyreactivity"),
    ("QVQLVESGGGLVQAGGSLRLSCAASGSTFRVYAMGWYRQAPGKERELVAAITKSGGSTYYADSVKGRFTISRDNAKNTVYLQMNSLKPEDTEVYYCAADKSWTRYGFYWGQGTQLTVSS", "high polyreactivity"),
]

polyreactivity (PSR sort gate) reported for this sequence QVQLVESGGGLVQAGGSLRLSCAASGSTFYVYAMGWYRQAPGKERELVAAINFNGGGTYYADSVKGRFTISRDNAMNTVYLQMNSLKPEDTAFYYCNAEDDYTYDRSFGGYKYDYWGQGTQVTVSS : low polyreactivity

Lab note: QVQLVESGGGLVQAGGSLRLSCAASGLIFSRYAMGWYRQGPGKERELVAASSGGGGSTYYADSVKGRFTISRDNAKNTVYLQMNSLKPEDTAVYYSARKYTRKIPASDYWGQGTQVTVSS gave polyreactivity (PSR sort gate) of high polyreactivity

For QVQLVESGGGLVQAGGSLRLSCAASGSTFTGNAMAWYRQAPGKERELVAAISRSGGSTFYADYVKGRFTISRDNAKNTVYLQMNSLKPEDTAVYYCATRYVVDMDYWGQGTQVTVSS the sequence record lists polyreactivity (PSR sort gate) as high polyreactivity

For this sequence ( QVQLVESGGGLVQAGGSLRLSCAASGSIFSVYAMGWYRQAPGKERELVAAISRSGGSTYYADSVKGRFTISRDNAKNTVYLQMNSLKPEDTAVYYCAARLAGRGSSSSRVVRTGGYWGQGTQVTVSS ), measured polyreactivity (PSR sort gate) is high polyreactivity

Notebook: QVQLVESGGGLDQAGGSLRLSCAASGFTFRHNTMGGYRQAPGKEREMVAAISIGGRTYYADSVKGRFTISRDNAKNTVYLQMNSLKPEDTAVYYCAKLSRGQSPGYDYWGQGTQVTVSS , polyreactivity (PSR sort gate) read as high polyreactivity
